# testedSystem: human GLP-1 receptor (human, UniProt P43220 24-463)
# assayRemarks: cell-based or functional assay
Bridge positions count the residues as written; N and C are the ends. Square brackets hold non-standard residues; d marks the D form. Ends that are not written are not given here. * marks the point of attachment. Acetyl(2-(4-imidazolyl)) = O=C(Cc1c[nH]cn1)*; Aib = CC(C)(N)C(=O)O
Binarize In vitro activity (%) compared with native peptide, vs GLP-1 at 10%; below is condition met, at or above is condition not met.

Worked set:
H[Aib]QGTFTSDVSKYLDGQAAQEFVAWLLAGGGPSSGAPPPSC (not fully specified) [triple agonist of SEQ ID NO: 10]; condition not met
{Acetyl(2-(4-imidazolyl))}-[Aib]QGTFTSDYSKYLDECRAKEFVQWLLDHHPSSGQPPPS (bridge 15-19) [triple agonist of SEQ ID NO: 73]; condition not met
[Acetyl(2-(4-imidazolyl))][Aib]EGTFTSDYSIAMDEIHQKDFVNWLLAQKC (bridge 16-20; not fully specified) [triple agonist of SEQ ID NO: 90]; condition met
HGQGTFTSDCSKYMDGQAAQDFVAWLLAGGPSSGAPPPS [triple agonist of SEQ ID NO: 45]; condition met
{Acetyl(2-(4-imidazolyl))}-[Aib]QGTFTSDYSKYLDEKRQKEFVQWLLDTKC (bridge 15-19; numbers in words are those of the source; also: ring between positions 16 and 20, type not given here) [triple agonist of SEQ ID NO: 89]; condition met
Y[Aib]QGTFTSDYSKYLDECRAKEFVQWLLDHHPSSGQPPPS (bridge 16-20) [triple agonist of SEQ ID NO: 21]; condition not met
H[Aib]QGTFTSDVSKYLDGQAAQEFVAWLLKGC [triple agonist of SEQ ID NO: 8]; condition not met
[Acetyl(2-(4-imidazolyl))][Aib]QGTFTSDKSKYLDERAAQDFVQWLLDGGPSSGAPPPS (not fully specified) [triple agonist of SEQ ID NO: 62]; condition met
H[Aib]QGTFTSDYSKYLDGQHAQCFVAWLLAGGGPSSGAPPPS [triple agonist of SEQ ID NO: 39]; condition not met
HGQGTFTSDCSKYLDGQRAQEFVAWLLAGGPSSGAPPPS [triple agonist of SEQ ID NO: 47]; condition met

Query block: Does the reported In vitro activity (%) compared with native peptide, vs GLP-1 of the following binder sit strictly below 10%? Y[Aib]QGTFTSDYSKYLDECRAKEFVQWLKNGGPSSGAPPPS (bridge 16-20) [triple agonist of SEQ ID NO: 24]
Result block: condition not met

Query block: H[Aib]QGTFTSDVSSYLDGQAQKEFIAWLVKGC (not fully specified) [triple agonist of SEQ ID NO: 2] ?
Result block: condition met
